Listed here: items and their measured Potency.
experiment-description: Cell Viability - Jurkat (AID 426);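 also: potency is read from the fitted curve at half-maximal effect; cells exposed to compound for 40 hours at 37 °C before ATP read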
reported-conditions: qHTS
Records with an inconclusive call do not appear. Active and inactive are the calls of the source.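 The calls were made as follows: active = dose-dependent loss of cell ATP signal giving a full or clear fitted curve, ranked by lower potency value; inconclusive = weak partial curve or response only at the top dose; inactive = no loss of viability signal.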
observation-type: Potency

INSERT INTO assay_data (sample_smiles, observation_type, reported_measurement) VALUES
  ('C=CCO', 'Potency', '> 92 µM (inactive)'),
  ('CCOS(C)(=O)=O', 'Potency', '> 92 µM (inactive)'),
  ('Cc1ccc([N+](=O)[O-])cc1', 'Potency', '> 92 µM (inactive)');

* * *

experiment-description: Cell Viability - LYMP2-003 (AID 965);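 also: cells exposed to compounds for 24 h before reading; 0% = DMSO only and full effect = 92 µM tetraoctylammonium bromide; nearly all actives have a fitted effect of over 50% in size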
reported-conditions: LYMP2-003 lymphoblastoid cell viability; series mostly up to 92.2 µM
Results filed as inconclusive are left out. The source made the active and inactive calls. Calls follow the shape of the dose curve; as a rule, active = well fitted cell-killing curve with a large enough effect; inconclusive = small, poorly fitted or top-dose-only effect, or effect the other way; inactive = flat fitted curve, though single readings scatter.
observation-type: outcome

INSERT INTO measurements (molecule, reported_measurement) VALUES
  ('Nc1ccc(Cl)c(Cl)c1', 'inactive'),
  ('O=C(O)C(Cl)Br (stereo not drawn)', 'inactive'),
  ('O=C(O)CCl', 'inactive');

* * *

experiment-description: Stat Signaling Pathway (AID 446);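 also: ME-180 cervical cancer cells given 40 pM IL-6 alongside compound; SIE-controlled beta-lactamase reporter measured as 460/530 nm FRET emission ratio; % is scaled to controls: 0 for no effect and ±100 for the full control effect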
reported-conditions: ME-180 (cervical carcinoma) SIE beta-lactamase reporter, IL-6 stimulated, 5 h; at 7.69 µM (top of the series) unless noted
Records with an inconclusive call do not appear. The source made the active and inactive calls. Calls follow the shape of the dose curve; as a rule, active = well fitted curve in either direction with a large enough effect (not every such curve was filed as active); inconclusive = small, poorly fitted or top-dose-only effect, or another doubt; inactive = flat fitted curve, though single readings scatter.
Labels: active, inactive

INSERT INTO measurements (molecule, class_label) VALUES
  ('Oc1ccc([C@H](O)[C@@H]2CCCCN2)cc1O', 'inactive'),
  ('NS(=O)(=O)C[C-]1C=C[CH]([Sb-]([Cl])([Cl])([Cl])([Cl])[Cl])C=C1.c1ccncc1 (stereo not given)', 'inactive'),
  ('COc1cc2cc(c1Cl)N(C)C(=O)C[C@H](OC(=O)C(C)C)[C@]1(C)O[C@@H]1[C@@H](C)[C@H]1C[C@](O)(NC(=O)O1)[C@@H](OC)/C=C\C=C(\C)C2', 'inactive'),
  ('O=[As](O)(O)c1ccc(Cc2ccc([As](=O)(O)O)cc2)cc1', 'inactive'),
  ('Cc1cc[c]([Sb]2[O][C@H]([C@H](O)[C@H](O)C(=O)O)[C@@H](CO)[O]2)cc1', 'inactive'),
  ('CO[C@@H]1CC=C2CCN3CCC4=C(CC(=O)OC4)[C@]23C1', 'inactive'),
  ('COc1ccc(C[C@@H]2NC[C@H](O)[C@@H]2OC(C)=O)cc1', 'active'),
  ('C[C@H](Br)C(=O)N[C@H](CO)C(=O)O', 'inactive'),
  ('N[C@@H](Cc1c[nH]c2cc([N+](=O)[O-])ccc12)C(=O)O', 'inactive'),
  ('NS(=O)(=O)c1ccc(-c2ccc([As](=O)(O)O)cc2)cc1', 'inactive'),
  ('O=C(O)C(Oc1nc(=S)[nH]c(=S)[nH]1)(c1ccc(Cl)cc1)c1ccc(Cl)cc1', 'inactive'),
  ('C[C@@H]1O[C@@H](O[C@H]2C[C@@H](O)[C@@]3(CO)[C@H]4[C@H](O)C[C@]5(C)[C@@H](C6=CC(=O)OC6)CC[C@]5(O)[C@H]4CC[C@@]3(O)C2)[C@@H](O)[C@H](O)[C@H]1O', 'inactive'),
  ('O=C(O)C[O][Sb][O]CC(=O)O', 'inactive'),
  ('Cc1ncc([N+](=O)[O-])n1CCN=[N+]=[N-]', 'inactive'),
  ('CO[C@H]1[C@H](O)[C@H](O[C@@H]2[C@H](Oc3cccc4c(O)c5c(=O)oc6ccc(C)c7c(=O)oc(c34)c5c67)O[C@@H](C)[C@H](O)[C@H]2O)O[C@@H](C)[C@@H]1O', 'inactive');

* * *

system-tested: Mitogen-activated protein kinase 10 (Mus musculus) (UniProt Q61831)
experiment-description: JNK3 AlphaScreen Assay (AID 530);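 also: kinase came from lysate of stimulated human HepG2 cells; signal reports phosphorylation of biotinylated GST-cJun 1-79 at Ser73 with 10 µM ATP; % is scaled to controls: 0 for no effect and ±100 for the full control effect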
reported-conditions: JNK3 lysate, c-Jun phosphorylation; series mostly up to 57.1 µM
Inconclusive results are not listed. Active and inactive are the calls of the source. Calls follow the shape of the dose curve; as a rule, active = well fitted curve in either direction with a large enough effect (not every such curve was filed as active); inconclusive = small, poorly fitted or top-dose-only effect, or another doubt; inactive = flat fitted curve, though single readings scatter.
observation-type: activity change, negative = inhibition

INSERT INTO measurements (sample_smiles, reported_measurement) VALUES
  ('Cl/C=C\Cl', 'inactive'),
  ('CCC/C=N/O', 'inactive'),
  ('COc1ccccc1CN1CCCC2(CCN(C(=O)Oc3ccccc3)CC2)C1', 'inactive');

* * *

experiment-description: Cell Viability - LYMP2-022 (AID 987);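 also: cells exposed to compound for 24 hr; nearly all actives have a fitted effect of over 55% in size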
reported-conditions: LYMP2-022 lymphoblastoid cell viability; series mostly up to 92.2 µM
Inconclusive results are not listed. Active and inactive are the calls of the source. Calls follow the shape of the dose curve; as a rule, active = well fitted cell-killing curve with a large enough effect; inconclusive = small, poorly fitted or top-dose-only effect; inactive = flat fitted curve, though single readings scatter.
Outcomes: TRUE for active, FALSE for inactive

INSERT INTO results (compound, class_label) VALUES
  ('C=CCCl', 'FALSE'),
  ('S=c1[nH]c2ccccc2[nH]1', 'FALSE'),
  ('O=C(O)c1cc(Cl)ccc1Cl', 'FALSE'),
  ('CC(C)C#N', 'FALSE'),
  ('CC(C)OS(C)(=O)=O', 'FALSE'),
  ('CCN(N=O)C(N)=O', 'FALSE'),
  ('c1ccc2c(c1)CCNC2', 'FALSE'),
  ('Nc1ccc([N+](=O)[O-])cc1N', 'FALSE'),
  ('Nn1cnnc1', 'FALSE'),
  ('[O-][Cl+2]([O-])O', 'FALSE'),
  ('BrCC(Br)C1CCC(Br)C(Br)C1 (stereo not given)', 'FALSE'),
  ('S=C1NCCN1', 'FALSE'),
  ('Cc1cc(-c2ccc(N)c(C)c2)ccc1N', 'FALSE'),
  ('CCCC[N+](=O)[O-]', 'FALSE'),
  ('N#CCBr', 'FALSE'),
  ('N#CCCCCC#N', 'FALSE'),
  ('O=NN1CCCCC1', 'FALSE'),
  ('CCNCC', 'FALSE'),
  ('CN(C)c1ccc(N)cc1', 'TRUE'),
  ('COC(C)(C)C', 'FALSE'),
  ('CN(C)c1ccccc1', 'FALSE'),
  ('Nc1cccc(Cl)c1', 'FALSE'),
  ('CCOP(=S)(OCC)Oc1nc(Cl)c(Cl)cc1Cl', 'FALSE'),
  ('CCCCOCC1CO1 (stereo not given)', 'FALSE'),
  ('CCCCC(CC)COC(=O)c1ccc(C(=O)OCC(CC)CCCC)c(C(=O)OCC(CC)CCCC)c1 (stereo not given)', 'FALSE'),
  ('O=[N+]([O-])c1ccc(O)c([N+](=O)[O-])c1', 'FALSE'),
  ('C=C(C)CCl', 'FALSE'),
  ('Nc1cc(Cl)cc(Cl)c1', 'FALSE'),
  ('CC(=O)CCC(C)=O', 'FALSE'),
  ('CC(C)(C)C(O)(CCc1ccc(Cl)cc1)Cn1cncn1 (stereo not given)', 'FALSE'),
  ('CC(C)(OOC(C)(C)c1ccccc1)c1ccccc1', 'FALSE'),
  ('COc1cc(-c2ccc(N)c(OC)c2)ccc1N', 'FALSE'),
  ('NC1CCC(CC2CCC(N)CC2)CC1 (stereo not given)', 'FALSE'),
  ('COP(=S)(OC)SCn1nnc2ccccc2c1=O', 'FALSE'),
  ('CCCCC(=O)Cl', 'FALSE'),
  ('Cc1ccc2c(C)cccc2c1', 'FALSE'),
  ('Nc1ncc([N+](=O)[O-])s1', 'FALSE'),
  ('O=[N+]([O-])c1ccccc1-c1ccccc1', 'FALSE'),
  ('C=CC(=O)OC', 'FALSE'),
  ('Clc1cccc(Cl)c1', 'FALSE'),
  ('CC[N+](=O)[O-]', 'FALSE'),
  ('Oc1ccc(Cl)c(Cl)c1Cl', 'FALSE'),
  ('C[N+](=O)[O-]', 'FALSE'),
  ('Nc1c(Cl)cc([N+](=O)[O-])cc1Cl', 'FALSE'),
  ('O=[N+]([O-])c1cccc2c([N+](=O)[O-])cccc12', 'FALSE');

* * *

experiment-description: qHTS assay for small molecule agonists of the antioxidant response element (ARE) signaling pathway (AID 651741); also: potency is read from the fitted curve at half-maximal effect; as to activation: % of control where 0% means no effect
reported-conditions: HepG2 ARE-bla reporter, beta-lactamase FRET ratio, 16 h; series mostly up to 96 µM
Results filed as inconclusive are left out. Activity calls are given as the source filed them. Calls follow the shape of the dose curve; as a rule, active = well fitted activation curve with a large enough effect in the signal ratio; inconclusive = small, poorly fitted or top-dose-only effect, or effect the other way, or a change in a side signal; inactive = flat fitted curve, though single readings scatter; the % refers to the signal ratio.
observation-type: Potency

INSERT INTO measurements (compound, reported_measurement) VALUES
  ('CC(C)(C)C(O)(CCc1ccc(Cl)cc1)Cn1cncn1 (configuration not stated)', 'inactive'),
  ('CN(C)c1ccc(N=Nc2ccccc2)cc1', '37.6 µM (active)'),
  ('Nc1c(Br)cc([N+](=O)[O-])cc1[N+](=O)[O-]', '37.6 µM (active)'),
  ('[O-][Cl+2]([O-])O', 'inactive'),
  ('BrCCc1ccccc1', 'inactive'),
  ('[O-][Cl+]O', 'inactive'),
  ('O=P(OCCCl)(OCCCl)OCCCl', 'inactive'),
  ('CCCCCc1cc(O)cc(O)c1', '42.2 µM (active)'),
  ('c1ccc(P(c2ccccc2)c2ccccc2)cc1', '37.6 µM (active)'),
  ('O=[N+]([O-])c1cccc2c([N+](=O)[O-])cccc12', '4.73 µM (active)'),
  ('Clc1ccc(C(Cl)(Cl)Cl)c(Cl)c1', 'inactive'),
  ('O=S(=O)(Cl)c1ccccc1', 'inactive'),
  ('Cl/C=C/CCl', 'inactive'),
  ('CCOP(=S)(OCC)Oc1nc(Cl)c(Cl)cc1Cl', '37.6 µM (active) [middle of 4 runs]'),
  ('c1ccc(NNc2ccccc2)cc1', 'inactive'),
  ('Nc1cccc(Cl)c1', 'inactive'),
  ('O=[N+]([O-])c1cccc(CCl)c1', '42.2 µM (active)');
